Biological target: Muscarinic acetylcholine receptor M1 (Homo sapiens)
Assay: Logarithm of affinity (log 1/M) at the free muscarinic acetylcholine receptor M1 by using semiquantitative equilibrium and off-rate assay

[
  {
    "smi": "O=C1CCc2cc3c(c4c5ccccc5n1c24)CNCC3",
    "Log 1/M": 5.85
  },
  {
    "smi": "COC(=O)c1ccc2c3c4c(cc5c3n(c2c1)C(=O)CC5)CNCC4",
    "Log 1/M": 6.14
  },
  {
    "smi": "O=C1CCc2cc3c(c4c5cc(CN6CCOCC6)ccc5n1c24)CCNC3",
    "Log 1/M": 5.47
  },
  {
    "smi": "COc1ccc2c(c1)c1c3c(cc4c1n2C(=O)CC4)CNCC3",
    "Log 1/M": 5.78
  },
  {
    "smi": "COc1cc2c3c4c(cc5c3n(c2cc1OC)C(=O)CC5)CCNC4",
    "Log 1/M": 6.19
  },
  {
    "smi": "COC(=O)c1c2c(c3c4cc(OC)c(OC)cc4n4c3c1CCC4=O)CCNC2",
    "Log 1/M": 5.97
  },
  {
    "smi": "COc1cc2c(c(OC)c1OC)c1c3c(cc4c1n2C(=O)CC4)CNCC3",
    "Log 1/M": 6.74
  },
  {
    "smi": "O=C1CCc2cc3c(c4c5ccc(O)cc5n1c24)CCNC3",
    "Log 1/M": 6.01
  }
]

---

Molecular target: Muscarinic acetylcholine receptor M3 (Homo sapiens) (UniProt P20309)
Sequence (P20309 whole entry, looked up): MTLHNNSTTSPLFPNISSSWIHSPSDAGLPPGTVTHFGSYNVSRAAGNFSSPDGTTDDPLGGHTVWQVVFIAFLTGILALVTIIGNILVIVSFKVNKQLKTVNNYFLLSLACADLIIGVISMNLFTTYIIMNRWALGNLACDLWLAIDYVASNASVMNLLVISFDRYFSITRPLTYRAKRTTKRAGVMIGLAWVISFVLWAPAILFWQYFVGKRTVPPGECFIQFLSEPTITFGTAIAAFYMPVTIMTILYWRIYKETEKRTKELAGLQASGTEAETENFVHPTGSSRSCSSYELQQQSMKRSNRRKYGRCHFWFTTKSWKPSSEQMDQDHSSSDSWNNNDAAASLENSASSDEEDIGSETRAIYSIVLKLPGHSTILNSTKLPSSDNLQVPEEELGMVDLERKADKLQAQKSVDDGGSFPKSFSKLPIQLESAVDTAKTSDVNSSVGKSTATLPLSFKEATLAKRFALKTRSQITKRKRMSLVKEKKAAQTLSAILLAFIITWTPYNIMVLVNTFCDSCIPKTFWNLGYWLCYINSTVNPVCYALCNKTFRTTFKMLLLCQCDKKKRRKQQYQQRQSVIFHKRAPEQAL
Assay: Logarithm of affinity (log 1/M) at the (N-methyl Scopolamine) NMS-liganded muscarinic acetylcholine receptor M3 by using semiquantitative equilibrium and off-rate assay
Reported Log 1/M values for a set of compounds

[
  {
    "smi": "COc1ccc2c3c4c(cc5c3n(c2c1)C(=O)CC5)CNCC4",
    "Log 1/M": 5.2
  },
  {
    "smi": "O=C1CCc2cc3c(c4c5cc(CN6CCOCC6)ccc5n1c24)CCNC3",
    "Log 1/M": 3.93
  },
  {
    "smi": "O=C1CCc2cc3c(c4c5cccc(O)c5n1c24)CCNC3",
    "Log 1/M": 4.37
  },
  {
    "smi": "COc1ccc2c3c4c(cc5c3n(c2c1)C(=O)CC5)CCNC4",
    "Log 1/M": 4.86
  },
  {
    "smi": "COc1ccc2c(c1)c1c3c(cc4c1n2C(=O)CC4)CNCC3",
    "Log 1/M": 4.54
  },
  {
    "smi": "COc1cc2c(c(OC)c1OC)c1c3c(cc4c1n2C(=O)CC4)CNCC3",
    "Log 1/M": 5.33
  },
  {
    "smi": "O=C1CCc2cc3c(c4c5ccc(O)cc5n1c24)CNCC3",
    "Log 1/M": 5.23
  },
  {
    "smi": "CC1(C)CC(=O)n2c3cccc(O)c3c3c4c(cc1c32)CNCC4",
    "Log 1/M": 4.84
  },
  {
    "smi": "O=C1CCc2cc3c(c4c5ccccc5n1c24)CNCC3",
    "Log 1/M": 4.69
  },
  {
    "smi": "COC(=O)c1ccc2c(c1)c1c3c(cc4c1n2C(=O)CC4)CCNC3",
    "Log 1/M": 4.88
  },
  {
    "smi": "O=C1CCc2cc3c(c4c5cc(O)ccc5n1c24)CNCC3",
    "Log 1/M": 5.12
  },
  {
    "smi": "O=C1CCc2cc3c(c4c5ccc(Cl)cc5n1c24)CCNC3",
    "Log 1/M": 5.48
  },
  {
    "smi": "COC(=O)c1ccc2c(c1)c1c3c(cc4c1n2C(=O)CC4)CNCC3",
    "Log 1/M": 5.09
  },
  {
    "smi": "COC(=O)c1cccc2c1c1c3c(cc4c1n2C(=O)CC4)CNCC3",
    "Log 1/M": 4.78
  },
  {
    "smi": "COc1cccc2c3c4c(cc5c3n(c12)C(=O)CC5)CNCC4",
    "Log 1/M": 4.75
  },
  {
    "smi": "COc1ccc2c(c1)c1c3c(cc4c1n2C(=O)CC4)CCNC3",
    "Log 1/M": 4.76
  },
  {
    "smi": "COc1cccc2c1c1c3c(cc4c1n2C(=O)CC4)CNCC3",
    "Log 1/M": 5.52
  },
  {
    "smi": "CC1(C)CC(=O)n2c3ccccc3c3c4c(cc1c32)CCNC4",
    "Log 1/M": 4.56
  },
  {
    "smi": "O=C1CCc2cc3c(c4c5c(Cl)cccc5n1c24)CCNC3",
    "Log 1/M": 6.05
  },
  {
    "smi": "O=C(O)c1ccc2c(c1)c1c3c(cc4c1n2C(=O)CC4)CNCC3",
    "Log 1/M": 3.94
  },
  {
    "smi": "O=C1CCc2cc3c(c4c5cc(O)ccc5n1c24)CCNC3",
    "Log 1/M": 5.47
  },
  {
    "smi": "O=C1CCc2cc3c(c4c5cc(Cl)ccc5n1c24)CCNC3",
    "Log 1/M": 5.23
  },
  {
    "smi": "COc1cc2c3c4c(cc5c3n(c2cc1OC)C(=O)CC5(C)C)CCNC4",
    "Log 1/M": 5.47
  },
  {
    "smi": "COC(=O)c1c2c(c3c4cc(OC)c(OC)cc4n4c3c1CCC4=O)CCNC2",
    "Log 1/M": 4.9
  },
  {
    "smi": "O=C(c1ccc2c(c1)c1c3c(cc4c1n2C(=O)CC4)CNCC3)N1CCOCC1",
    "Log 1/M": 3.57
  },
  {
    "smi": "COc1cc2c3c4c(cc5c3n(c2cc1OC)C(=O)CC5)CCNC4",
    "Log 1/M": 5.53
  },
  {
    "smi": "O=C1CCc2cc3c(c4c5c(O)cccc5n1c24)CCNC3",
    "Log 1/M": 5.27
  },
  {
    "smi": "O=C1CCc2cc3c(c4c5cc6c(cc5n1c24)OCO6)CCNC3",
    "Log 1/M": 5.06
  },
  {
    "smi": "N#Cc1ccc2c3c4c(cc5c3n(c2c1)C(=O)CC5)CNCC4",
    "Log 1/M": 4.68
  },
  {
    "smi": "COc1cc2c3c4c(c(COC(C)=O)c5c3n(c2cc1OC)C(=O)CC5)CNCC4",
    "Log 1/M": 5.85
  },
  {
    "smi": "COc1cccc2c1c1c3c(cc4c1n2C(=O)CC4(C)C)CNCC3",
    "Log 1/M": 4.83
  },
  {
    "smi": "O=C1CCc2cc3c(c4c5ccc(O)cc5n1c24)CCNC3",
    "Log 1/M": 5.29
  },
  {
    "smi": "COc1cc2c3c4c(cc5c3n(c2cc1OC)C(=O)CC5)CNCC4",
    "Log 1/M": 5.15
  },
  {
    "smi": "COC(=O)c1ccc2c3c4c(cc5c3n(c2c1)C(=O)CC5)CNCC4",
    "Log 1/M": 4.83
  },
  {
    "smi": "O=C1CCc2cc3c(c4c5ccccc5n1c24)CCNC3",
    "Log 1/M": 4.64
  },
  {
    "smi": "Cc1ccc2c(c1)c1c3c(cc4c1n2C(=O)CC4)CNCC3",
    "Log 1/M": 5.08
  }
]

---

Target: Muscarinic acetylcholine receptor M1 (Homo sapiens) (UniProt P11229)
Sequence (P11229 whole entry): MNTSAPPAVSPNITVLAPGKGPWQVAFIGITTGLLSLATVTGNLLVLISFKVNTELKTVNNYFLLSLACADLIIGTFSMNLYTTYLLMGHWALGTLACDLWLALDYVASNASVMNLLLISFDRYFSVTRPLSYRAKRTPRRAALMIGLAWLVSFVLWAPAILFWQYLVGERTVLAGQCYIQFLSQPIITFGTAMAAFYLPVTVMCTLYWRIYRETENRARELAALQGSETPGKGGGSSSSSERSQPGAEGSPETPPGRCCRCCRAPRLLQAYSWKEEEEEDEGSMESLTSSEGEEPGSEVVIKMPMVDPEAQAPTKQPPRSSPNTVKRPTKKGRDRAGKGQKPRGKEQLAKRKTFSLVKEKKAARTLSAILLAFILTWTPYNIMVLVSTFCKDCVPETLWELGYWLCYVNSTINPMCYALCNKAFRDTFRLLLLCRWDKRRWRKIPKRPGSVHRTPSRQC
Experiment: Logarithm of affinity (log 1/M) at the free muscarinic acetylcholine receptor M1 by using semiquantitative equilibrium and off-rate assay

[
  {
    "smi": "COc1cc2c3c4c(cc5c3n(c2cc1OC)C(=O)CC5)CNCC4",
    "Log 1/M": 6.05
  },
  {
    "smi": "COc1ccc2c3c4c(cc5c3n(c2c1)C(=O)CC5)CCNC4",
    "Log 1/M": 6.13
  },
  {
    "smi": "O=C1CCc2cc3c(c4c5cc6c(cc5n1c24)OCO6)CCNC3",
    "Log 1/M": 6.06
  },
  {
    "smi": "COc1ccc2c(c1)c1c3c(cc4c1n2C(=O)CC4)CCNC3",
    "Log 1/M": 6.1
  }
]

---

Target: Muscarinic acetylcholine receptor M4 (Homo sapiens)
Sequence (whole entry): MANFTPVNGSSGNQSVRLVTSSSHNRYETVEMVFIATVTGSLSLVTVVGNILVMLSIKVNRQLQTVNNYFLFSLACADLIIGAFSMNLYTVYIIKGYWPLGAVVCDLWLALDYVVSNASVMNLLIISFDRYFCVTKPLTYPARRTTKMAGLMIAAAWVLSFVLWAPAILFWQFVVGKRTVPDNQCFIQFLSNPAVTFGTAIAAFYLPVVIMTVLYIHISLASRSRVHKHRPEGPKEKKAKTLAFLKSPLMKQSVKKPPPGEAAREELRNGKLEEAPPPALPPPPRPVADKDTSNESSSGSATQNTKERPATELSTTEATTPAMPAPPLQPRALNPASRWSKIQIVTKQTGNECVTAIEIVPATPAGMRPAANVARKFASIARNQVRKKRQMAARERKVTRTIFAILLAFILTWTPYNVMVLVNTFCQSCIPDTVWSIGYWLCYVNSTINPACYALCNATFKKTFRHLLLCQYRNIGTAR
Assay: Logarithm of affinity (log 1/M) at the (N-methyl Scopolamine) NMS-liganded muscarinic acetylcholine receptor M4 by using semiquantitative equilibrium and off-rate assay
# Fulfilled = Log 1/M below 6 (exclusive); Not fulfilled = Log 1/M at/above 6

[
  {
    "smi": "COC(=O)c1cccc2c1c1c3c(cc4c1n2C(=O)CC4)CNCC3",
    "target-entity": "Muscarinic acetylcholine receptor M4 (Homo sapiens)",
    "class-label": "Fulfilled"
  },
  {
    "smi": "N#Cc1ccc2c3c4c(cc5c3n(c2c1)C(=O)CC5)CNCC4",
    "target-entity": "Muscarinic acetylcholine receptor M4 (Homo sapiens)",
    "class-label": "Fulfilled"
  },
  {
    "smi": "COc1ccc2c(c1)c1c3c(cc4c1n2C(=O)CC4)CNCC3",
    "target-entity": "Muscarinic acetylcholine receptor M4 (Homo sapiens)",
    "class-label": "Fulfilled"
  },
  {
    "smi": "COc1cccc2c3c4c(cc5c3n(c12)C(=O)CC5)CNCC4",
    "target-entity": "Muscarinic acetylcholine receptor M4 (Homo sapiens)",
    "class-label": "Fulfilled"
  },
  {
    "smi": "O=C(O)c1ccc2c(c1)c1c3c(cc4c1n2C(=O)CC4)CNCC3",
    "target-entity": "Muscarinic acetylcholine receptor M4 (Homo sapiens)",
    "class-label": "Fulfilled"
  },
  {
    "smi": "O=C1CCc2cc3c(c4c5ccc(O)cc5n1c24)CNCC3",
    "target-entity": "Muscarinic acetylcholine receptor M4 (Homo sapiens)",
    "class-label": "Fulfilled"
  },
  {
    "smi": "O=C1CCc2cc3c(c4c5ccc(Cl)cc5n1c24)CCNC3",
    "target-entity": "Muscarinic acetylcholine receptor M4 (Homo sapiens)",
    "class-label": "Not fulfilled"
  },
  {
    "smi": "COc1cc2c3c4c(cc5c3n(c2cc1OC)C(=O)CC5)CCNC4",
    "target-entity": "Muscarinic acetylcholine receptor M4 (Homo sapiens)",
    "class-label": "Not fulfilled"
  },
  {
    "smi": "COc1cc2c3c4c(cc5c3n(c2cc1OC)C(=O)CC5(C)C)CCNC4",
    "target-entity": "Muscarinic acetylcholine receptor M4 (Homo sapiens)",
    "class-label": "Not fulfilled"
  },
  {
    "smi": "O=C1CCc2cc3c(c4c5cc6c(cc5n1c24)OCO6)CCNC3",
    "target-entity": "Muscarinic acetylcholine receptor M4 (Homo sapiens)",
    "class-label": "Fulfilled"
  },
  {
    "smi": "O=C1CCc2cc3c(c4c5ccccc5n1c24)CNCC3",
    "target-entity": "Muscarinic acetylcholine receptor M4 (Homo sapiens)",
    "class-label": "Fulfilled"
  },
  {
    "smi": "COc1cc2c3c4c(c(COC(C)=O)c5c3n(c2cc1OC)C(=O)CC5)CNCC4",
    "target-entity": "Muscarinic acetylcholine receptor M4 (Homo sapiens)",
    "class-label": "Not fulfilled"
  }
]
